Target: wild-type EGFR (Homo sapiens)
Sequence (P00533 25-1210): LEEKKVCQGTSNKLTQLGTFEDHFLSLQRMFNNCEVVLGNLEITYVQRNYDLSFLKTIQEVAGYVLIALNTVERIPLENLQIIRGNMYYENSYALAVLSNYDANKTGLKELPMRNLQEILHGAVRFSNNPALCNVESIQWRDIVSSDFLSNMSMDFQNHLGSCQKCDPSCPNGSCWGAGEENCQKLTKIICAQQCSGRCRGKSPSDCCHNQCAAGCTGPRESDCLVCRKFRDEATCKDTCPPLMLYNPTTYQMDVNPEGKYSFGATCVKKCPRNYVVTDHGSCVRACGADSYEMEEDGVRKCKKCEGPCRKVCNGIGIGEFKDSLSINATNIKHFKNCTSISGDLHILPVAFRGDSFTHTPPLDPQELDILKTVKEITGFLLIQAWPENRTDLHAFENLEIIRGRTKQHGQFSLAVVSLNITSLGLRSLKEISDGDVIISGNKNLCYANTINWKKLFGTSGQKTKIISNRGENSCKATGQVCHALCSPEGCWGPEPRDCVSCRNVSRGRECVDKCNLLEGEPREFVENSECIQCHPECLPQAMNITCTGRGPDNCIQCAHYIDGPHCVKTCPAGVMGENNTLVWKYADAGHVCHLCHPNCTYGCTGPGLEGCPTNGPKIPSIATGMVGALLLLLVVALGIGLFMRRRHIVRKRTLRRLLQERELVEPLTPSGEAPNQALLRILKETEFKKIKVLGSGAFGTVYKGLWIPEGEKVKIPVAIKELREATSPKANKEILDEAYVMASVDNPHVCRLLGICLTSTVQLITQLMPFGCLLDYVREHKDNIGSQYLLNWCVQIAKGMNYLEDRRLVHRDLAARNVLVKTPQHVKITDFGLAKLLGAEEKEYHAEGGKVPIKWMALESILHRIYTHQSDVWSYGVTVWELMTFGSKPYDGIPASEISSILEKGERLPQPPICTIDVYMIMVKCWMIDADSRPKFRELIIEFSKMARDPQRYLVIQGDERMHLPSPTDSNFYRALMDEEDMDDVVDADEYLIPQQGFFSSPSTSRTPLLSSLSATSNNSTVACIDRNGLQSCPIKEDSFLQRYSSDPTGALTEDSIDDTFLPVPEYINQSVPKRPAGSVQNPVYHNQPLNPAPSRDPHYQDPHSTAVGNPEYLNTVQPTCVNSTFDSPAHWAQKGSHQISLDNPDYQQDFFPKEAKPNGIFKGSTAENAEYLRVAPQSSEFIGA
Assay: EGFR kinase assay (ELISA)
Conditions: 3000 nM; duplicate wells, calculated from A450
readout: inhibition at 3 µM (%)

> print(dat)
                                   compound                   testedtarget             readout  valuereported
1  COCCOc1cc2ncnc(Nc3cccc(-c4cn(-c5ccc(F)cc5)nn4)c3)c2cc1OCCOC [e7]  wild-type EGFR (Homo sapiens)  inhibition at 3 µM           13.4
2  COCCOc1cc2ncnc(Nc3cccc(-c4cn(-c5ccccc5Cl)nn4)c3)c2cc1OCCOC [e8]  wild-type EGFR (Homo sapiens)  inhibition at 3 µM             43
3  COCCOc1cc2ncnc(Nc3cccc(-c4cn(-c5ccccc5F)nn4)c3)c2cc1OCCOC [e6]  wild-type EGFR (Homo sapiens)  inhibition at 3 µM           70.9
4  COCCOc1cc2ncnc(Nc3cccc(-c4cn(-c5ccccc5Br)nn4)c3)c2cc1OCCOC [e9]  wild-type EGFR (Homo sapiens)  inhibition at 3 µM           41.4
